Would you kindly list inhibition for each of these compounds?
System: COS-7
assay_overview: Inhibition of HIV1 Nef-SH3Hck interaction in COS7 cells at 20 uM after 36 hrs by mammalian two-hybrid assay
Format: cell-based
assay_setup: Human immunodeficiency virus 1
One number for each entry, in %.

Recorded results for 3 compounds are shown here.
1. O=C(O)CCC(=O)c1ccc2ccc3cccc4ccc1c2c34	58.4
2. CN(C)c1ccc2nc3c(C(=O)O)cc(=O)c(O)c-3oc2c1	80.4
3. Cc1cc(OCc2nc(N)nc(N)c2-c2ccc(Cl)c(Cl)c2)ccc1[N+](=O)[O-]	57.5

Can you give me inhibition for all of these, one by one?
1. O=C(O)CCCc1ccc2ccc3ccccc3c2c1
2. COc1cc2ccccc2c2cc([N+](=O)[O-])oc12
3. CC(C)(C)c1ccc(OC(=O)Nc2ccc(O)c(C(=O)O)c2)cc1

[63.2, 53.8, 73.4]

Here are 2 compounds. What values of inhibition were reported for them?
1. CC(C)(C)c1ccc(OCC(=O)Nc2cccc(C(=O)O)c2)cc1
2. c1ccc(/C(=N/Nc2nc3ccccc3s2)c2ccccn2)cc1.c1ccc(/C(=N\Nc2nc3ccccc3s2)c2ccccn2)cc1

1. 75
2. 57.2
